The entries below are paired with their reported Replicate_1 (LOPAC screen with protease).
molecular target: SARS-CoV-2 3CLpro (Severe acute respiratory syndrome coronavirus 2); experiment: biochemical; format: biochemical; settings: sheet LOPAC_screen_w_protease; primary screen at 5 µM; replicate 1
readout.label: Replicate_1 (LOPAC screen with protease)

| compound | tested.target | observed |
| --- | --- | --- |
| Br.C=CCN1CCc2c(cc(O)c(O)c2Br)[C@@H](c2ccccc2)C1 [R(+)-6-Bromo-APB hydrobromide] | SARS-CoV-2 3CLpro (Severe acute respiratory syndrome coronavirus 2) | 26.2193 |
| CC(C)N(CCC(=O)c1ccc2ccccc2c1)Cc1ccccc1.Cl [ZM 39923 hydrochloride] | SARS-CoV-2 3CLpro (Severe acute respiratory syndrome coronavirus 2) | 92.2854 |
| CC(Cc1ccc(O)c(O)c1)C(C)Cc1ccc(O)c(O)c1 (centres unmarked) | SARS-CoV-2 3CLpro (Severe acute respiratory syndrome coronavirus 2) | 97.7665 |
| NC(=O)CI [Iodoacetamide] | SARS-CoV-2 3CLpro (Severe acute respiratory syndrome coronavirus 2) | 16.5057 |
| Nc1ncn([C@@H]2O[C@H](CO)[C@@H](O)[C@H]2O)c(=O)n1 | SARS-CoV-2 3CLpro (Severe acute respiratory syndrome coronavirus 2) | 17.5612 |
| Cc1ccc(S(=O)(=O)N[C@@H](Cc2ccccc2)C(=O)CCl)cc1 | SARS-CoV-2 3CLpro (Severe acute respiratory syndrome coronavirus 2) | 61.5523 |
| Br.CCCN1CCc2cc(O)cc3c2[C@H]1Cc1ccc(O)c(O)c1-3 | SARS-CoV-2 3CLpro (Severe acute respiratory syndrome coronavirus 2) | 94.651 |
| CN1CC[C@@]2(C)c3cc(O)ccc3N(C)[C@@H]12.O=C(O)/C=C/C(=O)O [(-)-Eseroline fumarate] | SARS-CoV-2 3CLpro (Severe acute respiratory syndrome coronavirus 2) | 89.8661 |
| CC1(NCC(O)COc2cccc3[nH]ccc23)CCC(C(C)(C)NC(=O)CBr)CC1 (racemic) [(±)-Pindobind, reference compound] | SARS-CoV-2 3CLpro (Severe acute respiratory syndrome coronavirus 2) | 33.8938 |
| CC1CNCCN1S(=O)(=O)c1cccc2cnccc12.Cl.Cl (centres unmarked) | SARS-CoV-2 3CLpro (Severe acute respiratory syndrome coronavirus 2) | 12.4365 |
| CN(C)C(=O)N=NC(=O)N(C)C [N,N,N',N'-Tetramethylazodicarboxamide] | SARS-CoV-2 3CLpro (Severe acute respiratory syndrome coronavirus 2) | 23.2519 |
| CN(N=O)c1ccc(O)c(O)c1 [Me-3,4-dephostatin, reference compound] | SARS-CoV-2 3CLpro (Severe acute respiratory syndrome coronavirus 2) | 29.2005 |
| CCCN1CCc2cccc3c2[C@H]1Cc1ccc(O)c(O)c1-3.Cl [R(-)-Propylnorapomorphine hydrochloride] | SARS-CoV-2 3CLpro (Severe acute respiratory syndrome coronavirus 2) | 101.086 |
| CCCc1c(OCCCOc2ccc(OCC(=O)O)cc2)ccc(C(C)=O)c1O | SARS-CoV-2 3CLpro (Severe acute respiratory syndrome coronavirus 2) | 14.4944 |
| NS(=O)(=O)c1cccc2c1c([N+](=O)[O-])cc1nc([O-])c([O-])nc12.[Na+].[Na+] [NBQX disodium] | SARS-CoV-2 3CLpro (Severe acute respiratory syndrome coronavirus 2) | 5.7201 |
| Cc1c(OCC(F)(F)F)ccnc1C[S+]([O-])c1nc2ccccc2[nH]1 (centres unmarked) [Lansoprazole, reference compound] | SARS-CoV-2 3CLpro (Severe acute respiratory syndrome coronavirus 2) | 48.0924 |
| O=C1c2c(O)cc(O)cc2O[C@H](c2ccc(O)c(O)c2)[C@H]1O (racemic) [(±)-Taxifolin] | SARS-CoV-2 3CLpro (Severe acute respiratory syndrome coronavirus 2) | 9.2588 |

These data points were gathered from paper PMC7587356.
